# systemName: T1, IL1RAP on HEK-Blue IL1β / HEK-Blue IL33 reporter cells (UniProt Q9NPH3 21-570, limits assumed)
# T1 sequence (looked up): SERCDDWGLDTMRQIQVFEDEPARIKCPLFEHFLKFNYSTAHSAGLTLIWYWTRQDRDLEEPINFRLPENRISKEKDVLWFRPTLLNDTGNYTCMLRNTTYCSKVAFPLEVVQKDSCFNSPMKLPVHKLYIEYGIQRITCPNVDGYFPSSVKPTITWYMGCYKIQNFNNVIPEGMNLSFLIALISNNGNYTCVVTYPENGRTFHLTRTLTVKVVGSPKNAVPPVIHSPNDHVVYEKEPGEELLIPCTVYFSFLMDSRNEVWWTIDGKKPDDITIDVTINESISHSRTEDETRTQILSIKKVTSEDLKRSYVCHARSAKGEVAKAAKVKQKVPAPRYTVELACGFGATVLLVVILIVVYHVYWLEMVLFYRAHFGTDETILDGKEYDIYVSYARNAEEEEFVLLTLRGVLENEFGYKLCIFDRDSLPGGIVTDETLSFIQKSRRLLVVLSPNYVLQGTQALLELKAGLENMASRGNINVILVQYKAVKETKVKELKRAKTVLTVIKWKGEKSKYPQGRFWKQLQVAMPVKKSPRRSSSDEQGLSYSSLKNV
# protocolDescription: cell-based or functional assay
metricName: IC50, HEK-BlueIL1β NFκB Reporter Assay

| binder | IC50, HEK-BlueIL1β NFκB Reporter Assay |
| --- | --- |
| STLX2043 (antibody, V domains shown, Purified from hybridoma of immunized Alivamab mice; intact IgG; captured on anti-mouse IgG Fc sensors in Octet; kappa light chain; also called 74804_43F04A) VH: QVQLLQSGAEVKKPGSSVKVSCKASGGTFSIYAIDWVRQAPGQGLEWMGGIIPIFGTENSAQNFQGRITITADKSTNTAYMELSSLRSEDTAVYYCARNGATSDAFDIWGQGTMVTVFS VL: EIVLTQSPGTLSLSPGERATLSCRASLSVSSNYLAWFQQRPGQAPRLLIYGVSRRATGIPDRFSGSGSGTDFTLTISRLEPEDFAVYYCQQYGSSPLTFGGGTKVEIK | 2.29e-09 M (implied; unit not printed) |

Looking up STLX2012 (antibody, V domains shown, Purified from hybridoma of immunized Alivamab mice; intact IgG; captured on anti-mouse IgG Fc sensors in Octet; kappa light chain; also called 74804_12A21B) VH: QVQLLQSGAEVKKPGSSVKVSCKASGGTFSIYAIDWVRQAPGQGLEWMGGIIPIFGTANSAQKFQGRVTITADKSTSTAYMELSSLRSEDTAVYYCARNGATSDAFDMWGQGTMVTVSS VL: EIVLTQSPGTLSLSPGERATLSCRASLSVSSNYLAWFQQRPGQAPRLLIHGVSRRATGIPDRFSGSGSGTDFTLTISRLEPEDFAVYYCQQYGSSPLTFGGGTKVEIK , I see its IC50, HEK-BlueIL1β NFκB Reporter Assay listed as 1.31e-09 M (implied; unit not printed)

Cited source for all entries: patent US20240392013A1
